Test system: Pseudotyped HCV GT1b particles (HCVpp), entry into Huh7-high CD81 cells
protocolNotes: microbe, parasite or virus in culture
Assay type: cell-based, HCV GT1b Con1 strain
assayConditions: Hepatitis C virus, GT1B, 72 h, read-out: HCVpp GT-1b (EC50, μM)
outcomeMeasure: EC50 (µM)
One number for each entry, in µM.

>>> val("CC(C)(C)OC(=O)NCCOc1ccc(-c2c(Cl)cc(Nc3n[nH]c(N)n3)cc2C(F)(F)F)cc1")
0.081
>>> val("CS(=O)(=O)Nc1ccc(-c2c(Cl)cc(Nc3n[nH]c(N)n3)cc2Cl)cc1")
0.039
>>> val("CS(=O)(=O)c1ccc(-c2c(Cl)cc(Nc3n[nH]c(N)n3)cc2C(F)(F)F)cc1")
0.046

Moving on to the next compound.
Input: Form field: EC50 recorded for Nc1nc(Nc2cc(Cl)c(-c3ccc(OCC(=O)O)cc3)c(Cl)c2)n[nH]1 with Pseudotyped HCV GT1b particles (HCVpp), entry into Huh7-high CD81 cells (enter value)
Output: 4.97

----------
Tested on: Pseudotyped HCV GT1a particles (HCVpp), entry into Huh7-high CD81 cells
protocolNotes: microbe, parasite or virus in culture
Assay type: cell-based, HCV GT1a H77 strain
assayConditions: Hepatitis C virus, 72 h, read-out: HCVpp GT-1a (EC50, μM)
Labelling: EC50 reported below 0.02 µM becomes T; at or above becomes F.

>>> labelclass("NC(=O)c1ccc(-c2c(Cl)cc(Nc3n[nH]c(N)n3)cc2Cl)cc1")
"T"

Input: is_below(EC50, 0.02 µM) for CC(C)(C)NS(=O)(=O)c1ccc(-c2c(Cl)cc(Nc3n[nH]c(N)n3)cc2C(F)(F)F)cc1OC(F)(F)F ?
Output: T

Input: Lab log: compare recorded EC50 with 0.02 µM; is it strictly lower for COc1cc(-c2c(Cl)cc(Nc3n[nH]c(N)n3)cc2C(F)(F)F)ccc1S(=O)(=O)NC(C)(C)C ?
Output: T

Input: Problem: For the compound CC(C)S(=O)(=O)c1ccc(-c2c(F)cc(Nc3n[nH]c(N)n3)cc2Cl)cc1 , is EC50 under 0.02 µM?
Output: F

Input: Could you please tell me whether EC50 recorded for N#Cc1cccc(-c2c(Cl)cc(Nc3n[nH]c(N)n3)cc2Cl)c1 is less than 0.02 µM?
Output: F

Input: is_below(EC50, 0.02 µM) for Nc1nc(Nc2cc(Cl)c(-c3ccc(Cl)c(Cl)c3)c(Cl)c2)n[nH]1 ?
Output: F

Input: Say whether its EC50 is strictly beneath 0.02 µM. Entry: Nc1nc(Nc2cc(Cl)c(-c3ccccc3Cl)c(Cl)c2)n[nH]1
Output: F

Input: Given the entry Nc1nc(Nc2cc(Cl)c(-c3ccc(F)cc3)c(Cl)c2)n[nH]1 , would its reported EC50 be below 0.02 µM?
Output: T

----------
Tested on: Pseudotyped HCV GT1b particles (HCVpp), entry into Huh7-high CD81 cells
protocolNotes: microbe, parasite or virus in culture
Assay type: cell-based, HCV GT1b Con1 strain
assayConditions: Hepatitis C virus, GT1B, 72 h, read-out: HCVpp GT-1b (EC50, μM)
Where a name gives a salt, the structure may show the parent alone.
Can you tell me EC50 for the items I'm about to list?
Numbers only, in µM.

Sample records with EC50:
>>> val("Nc1nc(Nc2cc(Cl)c(-c3ccc(OC(F)(F)F)cc3)c(Cl)c2)n[nH]1 [Compound 91]")
1.13
>>> val("COc1ccc(-c2c(Cl)cc(Nc3n[nH]c(N)n3)cc2C(F)(F)F)cc1S(=O)(=O)N1CCCC1 [Compound 203]")
0.008
>>> val("Nc1nc(Nc2cc(Cl)c(-c3ccc(S(=O)(=O)N4CCCC4)cc3)c(C(F)(F)F)c2)n[nH]1 [Compound 170]")
0.026

Hey, quick one: what's EC50 for each of these?
1. CNCCOc1ccc(-c2c(Cl)cc(Nc3n[nH]c(N)n3)cc2C(F)(F)F)cc1 [Compound 126, hydrochloride]
2. Nc1nc(Nc2cc(Cl)c(-c3ccc(OC[C@@H]4CCCN4)cc3)c(Cl)c2)n[nH]1 [Compound 265]
3. Nc1nc(Nc2cc(Cl)c(-c3ccc(S(=O)(=O)N4CCC[C@H]4C(=O)O)cc3)c(C(F)(F)F)c2)n[nH]1 [Compound 51]
4. Nc1nc(Nc2cc(Cl)c(-c3ccc(OCCN4CCOCC4)cc3)c(Cl)c2)n[nH]1 [Compound 281]

Output:
1. 0.088
2. 0.063
3. 0.678
4. 0.244

Input: What does the data say about its EC50? Entry: CS(=O)(=O)c1ccc(-c2ccc(Nc3n[nH]c(N)n3)cc2Cl)cc1 [Compound 154]
Output: 2.47

----------
Test system: Pseudotyped HCV GT1b particles (HCVpp), entry into Huh7-high CD81 cells
protocolNotes: microbe, parasite or virus in culture
Type: cell-based, HCV GT1b Con1 strain
assayConditions: Hepatitis C virus, GT1B, 72 h, read-out: HCVpp GT-1b (EC50, μM)
Where a name gives a salt, the structure may show the parent alone.
outcomeMeasure: EC50

Example entries and their recorded answers appear below.
>>> val("CS(=O)(=O)Nc1ccc(-c2c(Cl)cc(Nc3n[nH]c(N)n3)cc2Cl)c(F)c1")
"0.083 µM"
>>> val("Nc1nc(Nc2cc(Cl)c(-c3ccc(NC(=O)CCCC[C@@H]4SC[C@@H]5NC(=O)N[C@@H]54)cc3)c(Cl)c2)n[nH]1")
"0.09 µM"
>>> val("Nc1nc(Nc2cc(Cl)c(-c3cccc(S(=O)(=O)N4CCCC4)c3)c(C(F)(F)F)c2)n[nH]1")
"0.084 µM"
>>> val("CNS(=O)(=O)c1ccc(-c2c(F)cc(Nc3nc(N)n[nH]3)cc2C(F)(F)F)cc1")
"0.154 µM"
>>> val("Nc1nc(Nc2cc(Cl)c(-c3ccc(S(=O)(=O)N4CCS(=O)(=O)CC4)cc3)c(C(F)(F)F)c2)n[nH]1")
"0.101 µM"
>>> val("Nc1nc(Nc2cc(Cl)c(-c3ccc(OCC4CNC4)cc3)c(Cl)c2)n[nH]1 [Compound 32, hydrochloride]")
"0.116 µM"

Hello, I would appreciate it if you could give EC50 for each entry below.
1. CC(C)(C)NS(=O)(=O)c1ccc(-c2c(Cl)cc(Nc3n[nH]c(N)n3)cc2Cl)cc1
2. Nc1nc(Nc2cc(Cl)c(-c3ccccc3)c(Cl)c2)n[nH]1
3. CS(=O)(=O)CCCN1CCC(Oc2ccc(-c3c(Cl)cc(Nc4n[nH]c(N)n4)cc3C(F)(F)F)cc2)CC1 [Compound 142, hydrochloride]
4. Nc1nc(Nc2ccc(-c3ccc(F)c(F)c3)c(C(F)(F)F)c2)n[nH]1

Output:
0.004 µM
0.533 µM
0.242 µM
0.575 µM

Give me EC50 for each of these molecules, listed below.
1. Nc1nc(Nc2cc(Cl)c(-c3ccc(S(=O)(=O)CC4CCNCC4)cc3)c(C(F)(F)F)c2)n[nH]1 [Compound 40, hydrochloride]
2. COc1ccc(-c2c(Cl)cc(Nc3n[nH]c(N)n3)cc2C(F)(F)F)cc1OC(C)C
3. Nc1nc(Nc2cc(Cl)c(-c3ccc4[nH]ncc4c3)c(Cl)c2)n[nH]1
4. CS(=O)(=O)NCc1ccc(-c2c(Cl)cc(Nc3n[nH]c(N)n3)cc2Cl)cc1

Output:
0.073 µM
0.072 µM
0.343 µM
0.035 µM

Input: Fill in the recorded EC50 for this molecule, with Pseudotyped HCV GT1b particles (HCVpp), entry into Huh7-high CD81 cells as test system: COCC(=O)Nc1ccc(-c2c(Cl)cc(Nc3n[nH]c(N)n3)cc2Cl)cc1
Output: 0.113 µM

----------
Test system: Pseudotyped HCV GT1b particles (HCVpp), entry into Huh7-high CD81 cells
protocolNotes: microbe, parasite or virus in culture
Type: cell-based, HCV GT1b Con1 strain
assayConditions: Hepatitis C virus, GT1B, 72 h, read-out: HCVpp GT-1b (EC50, μM)
Rule: EC50 below 0.05 µM gives T, anything at or above gives F.

Solved cases (5 shown):
>>> labelclass("Nc1n[nH]c(Nc2cc(F)c(-c3ccc(S(=O)(=O)N4CCOCC4)cc3)c(C(F)(F)F)c2)n1 [Compound 78]")
"F"
>>> labelclass("Nc1nc(Nc2cc(Cl)c(-c3ccc(O[C@H]4CCNC4)cc3)c(Cl)c2)n[nH]1 [Compound 271]")
"F"
>>> labelclass("CS(=O)(=O)Nc1cccc(-c2c(Cl)cc(Nc3n[nH]c(N)n3)cc2Cl)c1 [Compound 112]")
"T"
>>> labelclass("COc1ccc(-c2c(Cl)cc(Nc3n[nH]c(N)n3)cc2C(F)(F)F)cc1S(=O)(=O)N1CCOCC1 [Compound 177]")
"T"
>>> labelclass("COc1cc(-c2c(Cl)cc(Nc3n[nH]c(N)n3)cc2C(F)(F)F)ccc1S(=O)(=O)NC1CCN(C(=O)OC(C)(C)C)CC1 [Compound 163]")
"T"

Moving on to the next compound.
Input: Hello, is EC50 of the following compound strictly smaller than 0.05 µM? CC1(NS(=O)(=O)c2ccc(-c3c(Cl)cc(Nc4n[nH]c(N)n4)cc3C(F)(F)F)cc2)CC1 [Compound 206]
Output: T
